Overview of recorded GI50 for various molecules
system: HOP-62; test: Cytotoxicity against human HOP62 cells; format: functional
Numbers only here, please. The scale is nM.

Below: 3 molecules and their reported GI50.
[[record]]
molecule = "CC1OC(=O)[C@H]2[C@H]1[C@@H](O)C[C@H]1[C@]3(C)CC[C@H]4C(C)(C)CCC[C@]4(C)[C@H]3C[C@@H](O)[C@]21C (some centres undefined)"
metric = "GI50"
units_text = "nM"
readout_number = 15100

[[record]]
molecule = "CC(=O)O[C@H]1C[C@H]2[C@@](C)(CC[C@H]3C(C)(C)CCC[C@@]32CO)[C@@H]2CC=C(C(C)=O)[C@H](C=O)[C@@]12C"
metric = "GI50"
units_text = "nM"
readout_number = 295

[[record]]
molecule = "CC(=O)O[C@@H]1C[C@H]2[C@]3(C)CC[C@H]4C(C)(C)CCC[C@]4(C)[C@H]3C[C@H](O)[C@]2(C)[C@@H](C=O)[C@@H]1C(C)=O"
metric = "GI50"
units_text = "nM"
readout_number = 1070


Supply GI50 value. Item: CC(=O)C1=CC[C@H]2[C@]3(C)CC[C@H]4C(C)(C)CCC[C@]4(C(=O)O)[C@H]3CC(=O)[C@]2(C)[C@H]1C=O
1350
